- assay.target: AGR2 (UniProt O95994 21-175)
- Sequence (O95994 21-175): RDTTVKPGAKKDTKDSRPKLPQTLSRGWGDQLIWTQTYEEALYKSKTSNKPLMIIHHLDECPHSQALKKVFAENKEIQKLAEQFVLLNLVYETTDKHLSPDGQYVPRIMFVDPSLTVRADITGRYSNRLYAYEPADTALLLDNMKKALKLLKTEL
- experiment.description: porous silicon RIFTS (EOT) biosensor; apparent, mass-transfer limited; Hill fit R2 0.9951; Selection buffers listed (assay buffer and temperature not stated in material): AGR2 137 mM NaCl, 20 mM KCl, 10 mM Na2HPO4, 2 mM KH2PO4 pH 7.4; 6H7 50 mM K2HPO4
endpoint.name: pKd
Note: pKd values are expressed as the negative base-10 logarithm of concentration in M.

// TCTCGGACGCGTGTGGTCGGGTGGGAGTTGTGGGGGGGGGTGGGAGGGTT (ssDNA, 5'-amino) [anti-AGR2 aptamer] : pKd value = 4.68
